Hey, just so you know, these numbers are from ChEMBL document CHEMBL4364279.

Target: Cholinesterase (Equus caballus) (UniProt P81908)
Sequence (P81908 whole entry): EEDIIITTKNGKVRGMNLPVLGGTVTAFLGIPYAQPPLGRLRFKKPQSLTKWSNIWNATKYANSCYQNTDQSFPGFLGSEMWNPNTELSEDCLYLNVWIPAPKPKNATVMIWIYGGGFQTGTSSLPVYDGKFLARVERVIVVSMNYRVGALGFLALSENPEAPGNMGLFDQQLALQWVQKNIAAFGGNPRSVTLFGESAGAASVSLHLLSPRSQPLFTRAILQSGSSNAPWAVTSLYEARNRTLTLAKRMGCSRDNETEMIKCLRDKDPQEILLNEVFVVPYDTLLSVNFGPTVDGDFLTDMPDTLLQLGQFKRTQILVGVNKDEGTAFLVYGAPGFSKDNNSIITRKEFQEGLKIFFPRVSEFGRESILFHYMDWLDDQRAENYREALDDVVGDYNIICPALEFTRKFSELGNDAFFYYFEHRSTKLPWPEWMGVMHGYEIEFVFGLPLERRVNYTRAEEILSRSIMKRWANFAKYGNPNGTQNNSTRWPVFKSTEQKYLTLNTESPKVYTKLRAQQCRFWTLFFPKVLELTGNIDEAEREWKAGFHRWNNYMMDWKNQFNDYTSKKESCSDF
Experiment: Reversible inhibition of equine serum BuChE assessed as enzyme activity at IC50 using butyrylthiocholine iodide as substrate by Ellman's method relative to control
Set-up: scale not given: the % may be the effect or the level left
property_label: Activity (%)
Give bare numbers, in %.

>>> observed_result("CCN(C)C(=O)Oc1cccc(/C=C/C(=O)c2ccccc2O)c1")
50.1
>>> observed_result("COc1cc2c(cc1OC)C(=O)C(CC1CCN(Cc3ccccc3)CC1)C2 (centres undefined)")
54.1
>>> observed_result("CCN(C)C(=O)Oc1cccc(/C=C/C(=O)c2ccccc2OC(=O)N(C)CC)c1")
49.7

Okay, next one:
Data request: What Activity value was documented for this compound, CCN(C)C(=O)Oc1cccc([C@H](C)N(C)C)c1 ?
Data returned: 49.8
